The measured values listed here are drawn from patent US6284871.

System: purified human Factor IXa (human) (UniProt P00740)
Measurement Notes: equilibrium binding in solution (method of Friguet): 30 nM Factor IXa with varying peptide, non-bound Factor IXa measured on immobilized peptide
Observation Type: Kd (µM)

# Binder, Unit String, Value Reported
measured = [
    ("KNFVKPNETKTYFWK [compound … (SEQ ID NO: 3), synthetic peptide of Factor VIII A3-domain residues 1804-1818]", "µM", 200),
]
